Where do the numbers come from? From PubChem BioAssay (NCI).

Recorded TGI for the following molecules
System: SR leukemia
Experiment: NCI tumour cell line growth inhibition, 48 h
Parameter Measured: TGI

Molecule	Recorded Result
N#Cc1ccc(OCc2ccc3nc(-c4ccccc4)c(Cl)nc3c2)cc1	> 100 µM
C/C1=C\CC[C@@](C)(O)[C@@H]2CC3[C@@H](OC(=O)C34CC4)[C@@H](O2)[C@H](C)CCC1 (stereo partly drawn)	> 100 µM
CC(C)=CC(=O)CC(=O)C(=O)Nc1ccc(Cl)c(Cl)c1	> 100 µM

* * *

Test system: HOP-92 NSCLC
Assay: NCI tumour cell line growth inhibition, 48 h; in the data active = GI50 below about 0.43 µM; inactive = the rest
Labels: true = active, false = inactive

Compound	Group
CC(=O)OC1C2(CC3N4C(=O)C5(CO)SSC4(CC31O)C(=O)N5C)OC(C)C(C)(C)C2=O (stereo not drawn)	true
Fc1ccc(Nc2nccc(-c3c(-c4ccc(C(F)(F)F)cc4)nn4ncccc34)n2)cc1F	false
Cc1cn2c(/C=N/N/C(N)=N\N)c(-c3ccc(Cl)c([N+](=O)[O-])c3)nc2s1	false

* * *

System: SR leukemia
Assay: NCI tumour cell line growth inhibition, 48 h

Compound	TGI
Cc1cccc(C(C)(C)C)c1NC(=O)C(=O)C(c1cnc2ccccc2n1)[N+](=O)[O-] (stereo not given)	> 100 µM
Cc1ncc([N+](=O)[O-])n1CCNC(=O)CCCn1cnc([N+](=O)[O-])n1	> 100 µM
CCCCCCCCCCCC1N=C(N)NC(CCCO)=C1C(=O)OC (stereo not given)	> 100 µM
O=C(O)c1c[nH]cc1C(=O)O	> 100 µM
N/N=C(\Cc1ccccc1)NN=C(N)N	> 100 µM
CN1CN(c2ccccc2)C2(CCN(CCCC(=O)c3cccs3)CC2)C1=O	> 100 µM
C[C@H](CS(C)(=O)=O)Nc1ncc2cc(Oc3ccc(F)cc3F)c(=O)n(C)c2n1	> 25 µM
CCOC(=O)/C(C#N)=C1\N[C@H](C(=O)OCC)CO1	> 100 µM
CCOC(=O)C(O)(NC(=O)Nc1ccc(F)cc1)C(F)(F)F (stereo not given)	> 100 µM
CCOC(=O)C(NC(=O)NC(C(=O)OCC)C(=O)OCC)C(=O)OCC	> 100 µM
Cn1c(=O)nc2n(-c3ccc(Cl)cc3Cl)c3ccccc3nc-2c1=O	> 100 µM
Cc1cc(NS(=O)(=O)c2ccc(Nc3c4ccccc4nc4ccc(C(=O)Nc5ccc(S(=O)(=O)N=C(N)N)cc5)cc34)cc2)no1	> 100 µM
C1=NCCOCCN=Cc2ccccc2OCc2cccc(n2)COc2ccccc21	9.91 µM
CCCCCCCCCCCCC(=O)[O-].CCCCCCCCCCCCC(=O)[O-].CCCCCCCCCCCCC(=O)[O-].CCCCCCCCCCCCC(=O)[O-].[Mo+2].[Mo+2]	29.8 µM
C/C=C(/CCCCNCCCC)[Si](C)(C)C	35.1 µM

* * *

Tested on: LOX IMVI melanoma
Experiment: NCI tumour cell line growth inhibition, 48 h
Each entry gets label 0 if its TGI stays under 3 µM, and label 1 if its TGI is 3 µM or above.

Compound	Group
CC1=CC(=O)C(C(C)=Nc2ccccc2Cl)C(=O)O1 (stereo unspecified)	label 1
COc1cc(/C=C(/c2ccccc2)[N+](=O)[O-])c(OC)c2c1OCO2	label 0
CC(=O)c1cccc(NCn2nnc3ccccc32)c1	label 1
CCOC(CCCN1CCC2(CC1)C(=O)N(C)CN2c1ccccc1)(OCC)c1ccc(F)cc1	label 1
CCOC(=O)c1cnn(-c2ccnc3c(C(F)(F)F)cccc23)c1N	label 1
O=C(Nc1ccc([N+](=O)[O-])cc1)C(=O)C(C(=O)c1ccccc1F)C1OC(=O)c2ccccc21 (stereo unspecified)	label 1
CCc1c[nH]c2ncnc(N3CC[C@@](N)(CNC(=O)c4ccc(F)cc4F)C3)c12	label 1
Fc1ccc(Nc2nccc(-c3c(-c4ccc(C(F)(F)F)cc4)nn4ncccc34)n2)cc1F	label 1
Cn1c(COC(=O)NC2CCCCC2)c(COC(=O)NC2CCCCC2)c2ccc3cc(Cl)c(Cl)cc3c21	label 1
Cc1cc(N2CCCC2)nc(N(CCCNc2ccnc3cc(Cl)ccc23)Cc2ccc3c(c2)OCO3)n1	label 0
O=C1N[C@@H]([C@H](CCCCCO)OC(=O)c2ccccc2)CO1	label 1
OC(c1ccccc1)(c1ccccc1)c1cccnc1	label 1
CN(C)Cc1cc(N=Nc2ccccc2Cl)cc(CN(C)C)c1O	label 1
O=C(NN1C(=O)CSC1c1ccc(Cl)cc1)c1[nH]c2ccc(F)cc2c1-c1ccccc1 (stereo unspecified)	label 1
COC1OC(COC(=O)NCCCCC(=O)C(F)(F)F)C(O)C(O)C1O (stereo unspecified)	label 1
CC[CH2][Pb]([CH2]CC)([CH2]CC)[NH]S(=O)(=O)c1ccc(C)cc1	label 0
Cc1ccc(C(=O)C#Cc2cn(C3CC(O)C(CO)O3)c(=O)[nH]c2=O)cc1 (stereo unspecified)	label 1
COc1ccc(COCC(Cn2ccnc2)OCc2ccc(C(=O)O)cc2)cc1 (stereo unspecified)	label 1
CC(=O)NC(CCCN(Cc1ccccc1)C(=O)N(CCCl)N=O)C(=O)NCc1ccccc1 (stereo unspecified)	label 1
CC(CCCOC(c1ccccc1)(c1ccccc1)c1ccccc1)OC(=O)Nc1cc([N+](=O)[O-])cc([N+](=O)[O-])c1 (stereo unspecified)	label 1
